PROCEDURE DETAILS: Solubility of polymerizable fluorine-containing sulfonic acid onium salts in PGMEA
REPORTED CONDITIONS: amount (g) of polymerizable monomer dissolved in 100 g of PGMEA
EXPERIMENTAL READOUT: Solubility (g/100 g)
Just the number please, in g/100 g, no unit attached.

Q: State its Solubility: C=C(COCCC(F)(F)C(F)(F)S(=O)(=O)O)C(=O)Oc1ccc2sc(=O)oc2c1 [PAG-8]
A: 42

Q: State its Solubility: C=C(COCCC(F)(F)C(F)(F)S(=O)(=O)[O-])C(=O)OC1CC2CC1CC2CC(OC(C)=O)(C(F)(F)F)C(F)(F)F.c1ccc(-[s+]2c3ccccc3c3ccccc32)cc1 (stereo not drawn) [PAG-2]
A: 50

***
Q: State its Solubility: C=C(COC(CCCC)C(F)(F)S(=O)(=O)[O-])C(=O)Oc1ccc(C(O)(C(F)(F)F)C(F)(F)F)cc1.Cc1ccc([S+](c2ccc(C)cc2)c2ccc(C)cc2)cc1 (stereo not drawn) [PAG-11]
A: 45

---

PROCEDURE DETAILS: Solubility of polymerizable fluorine-containing sulfonic acid onium salts in PGMEA
REPORTED CONDITIONS: amount (g) of polymerizable monomer dissolved in 100 g of PGMEA
EXPERIMENTAL READOUT: Solubility (g/100 g)
Just the number please, in g/100 g, no unit attached.

Q: State its Solubility: C=C(COCC(F)(F)S(=O)(=O)O)C(=O)OC1CC(C(O)(C(F)(F)F)C(F)(F)F)CC(C(O)(C(F)(F)F)C(F)(F)F)C1 (stereo not drawn) [PAG-3]
A: 55

***
Q: State its Solubility: C=C(COCC(F)(F)S(=O)(=O)O)C(=O)OC1CCOC1=O (stereo not drawn) [PAG-1]
A: 38

Q: State its Solubility: C=C(COCCCC(F)(F)S(=O)(=O)O)C(=O)OC1CC2CC1C1COC(=O)C21 (stereo not drawn) [PAG-15]
A: 42

Provenance of the data: patent US9488914B2
